# key: entry, value: GI50
# System: HL-60
# testDetails: NCI tumour cell line growth inhibition, 48 h
Activity calls are given as the source filed them. Rule as the data show it: active = GI50 up to about 1.1 µM and inactive = higher.

>  <compound>
Cc1ccc(S(=O)(=O)n2cc(C=O)c(-c3cn(S(=O)(=O)c4ccc(C)cc4)cc3-c3cn(S(=O)(=O)c4ccc(C)cc4)cc3C=O)c2)cc1

>  <result>
25.4 µM (inactive)

$$$$
>  <compound>
COc1cc(OC)c(/C=C\c2cc(/C=C/c3c(OC)cc(OC)cc3OC)c3ccccc3[n+]2C)c(OC)c1

>  <result>
2 µM (inactive)

$$$$
>  <compound>
CC(=O)OC1CC[C@@]2(C)C(CC[C@]3(C)C2CC=C2[C@@H]4CC(C)(C)CCC4(C)CCC23C)[C@@]1(C)C(=O)O (stereo partly drawn)

>  <result>
31.3 µM (inactive)

$$$$
>  <compound>
COc1cc(/C=C2\N=C(c3ccccc3)N(c3nc4cc(C)c(C)cc4s3)C2=O)ccc1O

>  <result>
18.7 µM (inactive)

$$$$

I would be grateful if you could share the reported GI50 for O=C1c2cccc(O)c2C(=O)c2c(O)cc(CO)cc21 [ALOE-EMODIN] . 24.8 µM (inactive)

Please look up its GI50: CC1(C)COC(c2cccc(C3=NC(C)(C)CO3)c2Br)=N1 > 100 µM (inactive)

What does the data say about its GI50? Entry: CCN(CC)CCCCC1CCN(CC(=O)N2CC(C)C(=O)Nc3ccccc32)CC1 (stereo not drawn) > 100 µM (inactive)

Record request: GI50 value, item CC(C)NC(=O)OCc1c(COC(=O)NC(C)C)c(-c2ccc(Cl)c(Cl)c2)n2c1CCC2 26.6 µM (inactive)
